- study-system: human TLR8 (Homo sapiens)
- Construct: expressed in transfected cells; host or cells: HEK293
- experiment: TLR8 NFκB-luc cellular reporter assay in transiently transfected HEK293 cells
- Type: cell-based
- stated-conditions: lowest effective concentration; HEK293 cells transfected with wild type TLR8 and NFκB-luc reporter, 6 h incubation
parameter: hTLR8-wt (LEC) (µM)

molecule-smiles	units-label	hTLR8-wt (LEC)
CCC[C@H](CO)Nc1nc(N)nc2c(F)cccc12	µM	3.27
CCCC[C@H](CO)Nc1nc(N)nc2cc(C(F)(F)F)ccc12	µM	0.35
CCC[C@H](CO)Nc1nc(N)nc2c(C)cccc12	µM	5.75
CCCC[C@H](CO)Nc1nc(N)nc2cccc(F)c12	µM	0.07
CCCC[C@H](CO)Nc1nc(N)nc2c(C)cccc12	µM	0.46

[A] CCCC[C@H](CO)Nc1nc(N)nc2c(OC)cccc12
[B] CCCC[C@H](CO)Nc1nc(N)nc2c(F)cccc12
[C] CSCC[C@H](CO)Nc1nc(N)nc2cccc(F)c12
[D] CCCC[C@H](CO)Nc1nc(N)nc2cccc(Cl)c12
**Q:** // ranking: key=hTLR8-wt (LEC), reverse=True Could you list the labels in the order requested?
**A:** A, C, B, D

[1] CCCC[C@H](CO)Nc1nc(N)nc2cc(C(=O)N(C)C)ccc12
[2] CC[C@H](C)[C@H](CO)Nc1nc(N)nc2cccc(F)c12
**Q:** Between 1 and 2 , which one shows the larger hTLR8-wt (LEC) value? Selection: enter the item's label.
**A:** 1

[I] CCCC[C@H](CO)Nc1nc(N)nc2cc(C#N)ccc12
[II] CCCC[C@H](CO)Nc1nc(N)nc2cccc(C(F)(F)F)c12
[III] CCCC[C@H](CO)Nc1nc(N)nc2cccc(C3CC3)c12
[IV] CCCC[C@H](CO)Nc1nc(N)nc2c(Cl)cccc12
[V] CCCC[C@H](CO)Nc1nc(N)nc2cc(F)cc(F)c12
**Q:** Let's sort these by hTLR8-wt (LEC), smallest first. Go ahead? Could you list the labels in the order requested?
**A:** V, I, III, II, IV
(V: 0.04 µM, I: 0.14 µM, III: 0.35 µM, II: 0.66 µM, IV: 2.72 µM)

----------
- study-system: human TLR8 (Homo sapiens, UniProt Q9NR97)
- Construct: expressed in transfected cells; host or cells: HEK293
- Sequence (Q9NR97 27-1041): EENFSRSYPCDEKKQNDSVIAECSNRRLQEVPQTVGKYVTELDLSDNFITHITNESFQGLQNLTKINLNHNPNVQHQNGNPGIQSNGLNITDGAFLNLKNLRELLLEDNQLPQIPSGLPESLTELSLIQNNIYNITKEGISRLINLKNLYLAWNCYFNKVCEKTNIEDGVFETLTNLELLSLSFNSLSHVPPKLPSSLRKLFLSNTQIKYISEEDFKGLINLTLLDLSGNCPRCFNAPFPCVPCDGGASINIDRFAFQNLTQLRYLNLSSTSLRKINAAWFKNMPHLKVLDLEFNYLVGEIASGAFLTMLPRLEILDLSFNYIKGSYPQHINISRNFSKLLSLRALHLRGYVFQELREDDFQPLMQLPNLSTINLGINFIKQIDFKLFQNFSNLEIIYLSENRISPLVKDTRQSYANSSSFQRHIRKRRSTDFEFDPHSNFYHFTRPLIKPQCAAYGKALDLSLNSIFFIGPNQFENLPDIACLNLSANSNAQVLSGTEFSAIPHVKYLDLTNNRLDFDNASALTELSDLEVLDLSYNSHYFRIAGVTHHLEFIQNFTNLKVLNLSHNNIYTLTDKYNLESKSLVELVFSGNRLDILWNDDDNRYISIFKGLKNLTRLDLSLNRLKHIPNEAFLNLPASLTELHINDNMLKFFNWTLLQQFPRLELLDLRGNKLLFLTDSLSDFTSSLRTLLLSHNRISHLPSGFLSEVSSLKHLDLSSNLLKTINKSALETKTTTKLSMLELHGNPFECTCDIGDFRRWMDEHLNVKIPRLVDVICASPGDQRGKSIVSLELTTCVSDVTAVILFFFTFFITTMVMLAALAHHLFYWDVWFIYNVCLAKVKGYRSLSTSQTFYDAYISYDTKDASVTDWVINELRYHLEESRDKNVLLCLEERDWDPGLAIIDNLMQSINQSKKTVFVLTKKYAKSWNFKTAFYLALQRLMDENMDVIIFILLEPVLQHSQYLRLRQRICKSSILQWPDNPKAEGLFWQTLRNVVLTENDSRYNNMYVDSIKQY
- experiment: TLR8 NFκB-luc cellular reporter assay in transiently transfected HEK293 cells
- Format: cell-based
- stated-conditions: lowest effective concentration; HEK293 cells transfected with wild type TLR8 and NFκB-luc reporter, 6 h incubation
parameter: hTLR8-wt (LEC) (µM)

molecule-smiles	hTLR8-wt (LEC) (µM)
CCCC[C@H](COC(=O)C(C)C)Nc1nc(N)nc2c(C)cccc12	0.64

[a] CCCC[C@H](CO)Nc1nc(N)nc2cc(C)ccc12
[b] CCCC[C@H](CO)Nc1nc(N)nc2cccc(C)c12
[c] CCCC[C@H](CO)Nc1nc(N)nc2cccc(C(=O)NC)c12
[d] CCCC[C@H](CO)Nc1nc(N)nc2c(F)c(F)ccc12
**Q:** Let's sort these by hTLR8-wt (LEC), smallest first. Go ahead? Could you list the labels in the order requested?
**A:** a, b, d, c
